Target: human β3 adrenergic receptor (Homo sapiens, UniProt P13945)
Construct: used as a probe to obtain the full length human β3 gene from a human genomic library (Clonetech)
Sequence (P13945 whole entry): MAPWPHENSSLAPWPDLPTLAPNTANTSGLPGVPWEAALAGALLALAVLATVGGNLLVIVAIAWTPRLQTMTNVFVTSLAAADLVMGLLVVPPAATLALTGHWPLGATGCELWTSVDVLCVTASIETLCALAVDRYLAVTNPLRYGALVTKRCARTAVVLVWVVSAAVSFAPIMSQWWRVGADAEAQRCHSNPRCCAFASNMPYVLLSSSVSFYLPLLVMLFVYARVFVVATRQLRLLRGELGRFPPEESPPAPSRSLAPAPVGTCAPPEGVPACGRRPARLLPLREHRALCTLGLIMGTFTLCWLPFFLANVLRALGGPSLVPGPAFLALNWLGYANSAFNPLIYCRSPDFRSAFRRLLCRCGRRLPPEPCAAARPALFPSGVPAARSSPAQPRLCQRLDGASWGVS
Experiment: Test example 1-B: human β3 adrenergic receptor agonist activity (cAMP-Screen, 96-well)
Conditions: Table 4; Test example 1-B; CHO cells with human β3 gene; cAMP
Method: Human β3 adrenergic receptor agonist activity is determined using CHO (Chinese hamster ovary) cells transfected with pcDNA3 (Invitrogen) to which human β3 gene has been inserted. […] This human β3 cDNA fragment is used as a probe to obtain the full length human β3 gene from a human genomic library (Clonetech). […] The resulting cell lysate is determined to cAMP quantitation by using cAMP-Screen kit described above.
reported property: pEC50
// scale note: pEC50 = -log10(conc_M); give the bare number

Give the measured pEC50 of CS(=O)(=O)Nc1cc([C@@H](O)CNCCOc2ccc3c(OC(F)F)n[nH]c3c2)ccc1F .
6.23

So what does the record say about pEC50 for CS(=O)(=O)Nc1cc([C@@H](O)CNCCOc2ccc3c(C4CC4)n[nH]c3c2)ccc1F ?
7.62

Entry CS(=O)(=O)Nc1cccc([C@@H](O)CNCCOc2ccc3c(C4CC4)n[nH]c3c2)c1 : reported pEC50 = ?
7.82

Could you tell me which pEC50 is on file for CS(=O)(=O)Nc1cc([C@@H](O)CNCCOc2ccc3c(C4CCC4)n[nH]c3c2)ccc1Cl ?
7.54

Given the entry CS(=O)(=O)Nc1cc([C@@H](O)CNCCOc2ccc3c(C4CCC4)n[nH]c3c2)ccc1F , report its measured pEC50.
7.27

Given COC(C)c1n[nH]c2cc(OCCNC[C@H](O)c3cccc(NS(C)(=O)=O)c3)ccc12 (stereo partly drawn) , state its recorded pEC50.
7.35

I have this compound here, CS(=O)(=O)Nc1cc([C@@H](O)CNCCOc2ccc3c(C4CC4)n[nH]c3c2)ccc1Cl , and I need its recorded pEC50.
7.72

# input compound: CS(=O)(=O)Nc1cc([C@@H](O)CNCCOc2ccc3c(OC(F)F)n[nH]c3c2)ccc1Cl ; wanted: its pEC50
7.25

# query: pEC50 of entry CS(=O)(=O)Nc1cccc([C@@H](O)CNCCOc2ccc3c(C4CCC4)n[nH]c3c2)c1
7.25

* * *

Molecular target: human α1A adrenergic receptor (Homo sapiens, UniProt P35348)
Sequence (P35348 whole entry): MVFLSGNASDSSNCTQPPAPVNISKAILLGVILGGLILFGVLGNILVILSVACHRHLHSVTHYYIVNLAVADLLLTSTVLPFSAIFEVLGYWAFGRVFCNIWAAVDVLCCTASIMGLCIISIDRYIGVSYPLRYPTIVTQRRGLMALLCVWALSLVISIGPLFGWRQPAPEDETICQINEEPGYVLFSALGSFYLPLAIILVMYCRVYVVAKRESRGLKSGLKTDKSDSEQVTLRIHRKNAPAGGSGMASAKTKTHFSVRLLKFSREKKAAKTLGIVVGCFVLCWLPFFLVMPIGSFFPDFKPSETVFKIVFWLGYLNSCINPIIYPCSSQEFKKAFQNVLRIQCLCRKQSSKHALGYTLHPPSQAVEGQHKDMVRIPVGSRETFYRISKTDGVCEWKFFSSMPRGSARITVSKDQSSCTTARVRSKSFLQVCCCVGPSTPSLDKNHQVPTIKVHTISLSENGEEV
Test: Test example 4: human α1A adrenergic receptor agonist activity (Ca flux, Fura-2)
reported property: pEC50
Bear in mind: pEC50 is minus log10 of a mol/L concentration; give just that figure.

Write down the reported pEC50 of CS(=O)(=O)Nc1cccc([C@@H](O)CNCCOc2ccc3c(C4CC4)n[nH]c3c2)c1 [Example 1] , test system: human α1A adrenergic receptor (Homo sapiens, UniProt P35348).
5.78

* * *

Assay: Test example 11: solubility test in hydrochloric acid buffer solution having pH 1.2
Format: physicochemical
Conditions: 37 °C, pH 1.2, simulated gastric fluid, thermodynamic from solid, pH 1.2, 37° C., prepared at 1000 μg/mL
reported property: solubility at 1 h (µg/mL)
Enter your answer as a number in µg/mL; do not include the unit.

Any idea what solubility at 1 h was measured for CS(=O)(=O)Nc1cccc([C@@H](O)CNCCOc2ccc3c(C4CC4)n[nH]c3c2)c1 ?
982

* * *

Would you mind telling me the reported Emax of each entry?
Target: human β1 adrenergic receptor (Homo sapiens, UniProt P08588)
Construct: expressed in transfected cells; host or cells: CHO (Chinese hamster ovary) cells, pcDNA3
Sequence (P08588 whole entry): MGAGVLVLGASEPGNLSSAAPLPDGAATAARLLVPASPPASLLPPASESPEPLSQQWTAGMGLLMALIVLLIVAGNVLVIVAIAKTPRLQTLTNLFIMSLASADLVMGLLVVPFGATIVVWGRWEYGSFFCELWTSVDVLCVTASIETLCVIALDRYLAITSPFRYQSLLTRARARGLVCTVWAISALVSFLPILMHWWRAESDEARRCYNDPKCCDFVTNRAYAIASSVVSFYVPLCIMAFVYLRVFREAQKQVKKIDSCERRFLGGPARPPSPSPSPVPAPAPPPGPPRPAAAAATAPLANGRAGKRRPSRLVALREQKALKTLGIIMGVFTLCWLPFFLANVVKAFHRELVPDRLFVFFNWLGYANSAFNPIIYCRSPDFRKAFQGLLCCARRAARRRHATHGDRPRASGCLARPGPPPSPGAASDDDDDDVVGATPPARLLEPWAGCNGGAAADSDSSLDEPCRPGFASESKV
Assay: Test example 2-B: human β1 adrenergic receptor agonist activity
Assay type: cell-based
Conditions: 0.5 h; read-out: β1 receptor I.A.
Only the number, expressed in %, is required.

Fill blank: measured Emax of the molecule COC(C)c1n[nH]c2cc(OCCNC[C@H](O)c3cccc(NS(C)(=O)=O)c3)ccc12 (stereo partly shown) is ____.
4

Query: Emax; subject: CS(=O)(=O)Nc1cc([C@@H](O)CNCCOc2ccc3c(C4CC4)n[nH]c3c2)ccc1Cl
23

Which Emax reading was recorded for the molecule CS(=O)(=O)Nc1cc([C@@H](O)CNCCOc2ccc3c(C4CC4)n[nH]c3c2)ccc1F ?
9

Looking for the measured Emax of CS(=O)(=O)Nc1cc([C@@H](O)CNCCOc2ccc3c(C4CCC4)n[nH]c3c2)ccc1Cl , can you help?
34

* * *

Molecular target: human β3 adrenergic receptor (Homo sapiens)
Construct: used as a probe to obtain the full length human β3 gene from a human genomic library (Clonetech); expressed in transfected cells; host or cells: CHO (Chinese hamster ovary) cells, pcDNA3, geneticin-selected
Assay: Test example 1-B: human β3 adrenergic receptor agonist activity (cAMP-Screen, 96-well)
Type: cell-based
Settings: 0.5 h; read-out: β3 receptor I.A.
reported property: Emax (%)
Write the number in % without appending the unit.

Recorded Emax for CS(=O)(=O)Nc1cc([C@@H](O)CNCCOc2ccc3c(OC(F)F)n[nH]c3c2)ccc1F , please?
51

Fill in the blank: the reported Emax of CS(=O)(=O)Nc1cc([C@@H](O)CNCCOc2ccc3c(C4CC4)n[nH]c3c2)ccc1F is ____.
52

Which measured Emax value corresponds to CS(=O)(=O)Nc1cccc([C@@H](O)CNCCOc2ccc3c(C4CC4)n[nH]c3c2)c1 ?
77

Item under review: CS(=O)(=O)Nc1cc([C@@H](O)CNCCOc2ccc3c(C4CCC4)n[nH]c3c2)ccc1F . Reported Emax?
41

So what's the measured Emax for this one? CS(=O)(=O)Nc1cc([C@@H](O)CNCCOc2ccc3c(C4CC4)n[nH]c3c2)ccc1Cl
59

Report Emax for CS(=O)(=O)Nc1cc([C@@H](O)CNCCOc2ccc3c(C4CCC4)n[nH]c3c2)ccc1Cl please.
70

Which Emax is reported for this molecule? CS(=O)(=O)Nc1cc([C@@H](O)CNCCOc2ccc3c(OC(F)F)n[nH]c3c2)ccc1Cl
51

// query Emax value for entry CS(=O)(=O)Nc1cccc([C@@H](O)CNCCOc2ccc3c(C4CCC4)n[nH]c3c2)c1
68

Fill in: Emax of COC(C)c1n[nH]c2cc(OCCNC[C@H](O)c3cccc(NS(C)(=O)=O)c3)ccc12 (stereo partly drawn) is ___
60

* * *

Biological target: human α1A adrenergic receptor (Homo sapiens, UniProt P35348)
Construct: expressed in transfected cells; host or cells: HEK293 cells, pcDNA3.1(−), geneticin-selected
Experiment: Test example 4: human α1A adrenergic receptor agonist activity (Ca flux, Fura-2)
Assay type: cell-based
Conditions: Table 4; Test example 4; maximum response to norephinephrine taken as 100%; read-out: α1A receptor I.A.
reported property: Emax (%)
The answer is to be given in %; state only the numeric part.

Recorded Emax for CS(=O)(=O)Nc1cc([C@@H](O)CNCCOc2ccc3c(C4CC4)n[nH]c3c2)ccc1Cl [Example 5] , please?
0

Which Emax is listed for COC(C)c1n[nH]c2cc(OCCNC[C@H](O)c3cccc(NS(C)(=O)=O)c3)ccc12 (stereo partly drawn) [Example 3] ?
15

Please report the recorded Emax for CS(=O)(=O)Nc1cc([C@@H](O)CNCCOc2ccc3c(C4CC4)n[nH]c3c2)ccc1F [Example 4] .
0

Please report the recorded Emax for CS(=O)(=O)Nc1cc([C@@H](O)CNCCOc2ccc3c(OC(F)F)n[nH]c3c2)ccc1F [Example 7] .
5

# get_value(readout='Emax', item= CS(=O)(=O)Nc1cc([C@@H](O)CNCCOc2ccc3c(OC(F)F)n[nH]c3c2)ccc1Cl [Example 9] )
5

What Emax value was documented for this molecule, CS(=O)(=O)Nc1cc([C@@H](O)CNCCOc2ccc3c(C4CCC4)n[nH]c3c2)ccc1Cl [Example 8] ?
0

// lookup Emax for CS(=O)(=O)Nc1cccc([C@@H](O)CNCCOc2ccc3c(C4CC4)n[nH]c3c2)c1 [Example 1]
20

Give the measured Emax of CS(=O)(=O)Nc1cccc([C@@H](O)CNCCOc2ccc3c(C4CCC4)n[nH]c3c2)c1 [Example 2] .
10

Requested field: Emax. Item: CS(=O)(=O)Nc1cc([C@@H](O)CNCCOc2ccc3c(C4CCC4)n[nH]c3c2)ccc1F [Example 6]
0

* * *

Molecular target: human β2 adrenergic receptor (Homo sapiens)
Construct: expressed in transfected cells; host or cells: CHO (Chinese hamster ovary) cells, pcDNA3
Sequence (P07550 whole entry): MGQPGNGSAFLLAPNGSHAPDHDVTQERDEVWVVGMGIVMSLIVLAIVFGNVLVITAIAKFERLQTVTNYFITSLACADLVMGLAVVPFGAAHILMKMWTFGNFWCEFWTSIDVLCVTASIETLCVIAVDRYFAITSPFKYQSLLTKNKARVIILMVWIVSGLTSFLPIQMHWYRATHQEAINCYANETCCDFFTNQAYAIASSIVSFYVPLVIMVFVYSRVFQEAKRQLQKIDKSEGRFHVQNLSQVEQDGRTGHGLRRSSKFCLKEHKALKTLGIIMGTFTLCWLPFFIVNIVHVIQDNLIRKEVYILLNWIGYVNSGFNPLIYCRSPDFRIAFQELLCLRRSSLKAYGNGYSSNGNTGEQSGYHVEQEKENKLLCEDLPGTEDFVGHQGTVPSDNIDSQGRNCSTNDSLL
Test: Test example 3-B: human β2 adrenergic receptor agonist activity
Format: cell-based
Details: read-out: β2 receptor I.A.
hey, just use label 1 if measured Emax is less than 5%, otherwise label 0

Emax under 5%? Item: CS(=O)(=O)Nc1cc([C@@H](O)CNCCOc2ccc3c(C4CCC4)n[nH]c3c2)ccc1Cl
label 0

State whether 5% exceeds Emax recorded for CS(=O)(=O)Nc1cc([C@@H](O)CNCCOc2ccc3c(C4CC4)n[nH]c3c2)ccc1Cl .
label 0

Does the reported Emax of CS(=O)(=O)Nc1cccc([C@@H](O)CNCCOc2ccc3c(C4CCC4)n[nH]c3c2)c1 stay below 5%?
label 1

Please let me know if CS(=O)(=O)Nc1cc([C@@H](O)CNCCOc2ccc3c(OC(F)F)n[nH]c3c2)ccc1Cl shows Emax below 5%.
label 1

Consider the compound CS(=O)(=O)Nc1cc([C@@H](O)CNCCOc2ccc3c(C4CC4)n[nH]c3c2)ccc1F . Is its Emax strictly less than 5%?
label 0

Given the entry CS(=O)(=O)Nc1cccc([C@@H](O)CNCCOc2ccc3c(C4CC4)n[nH]c3c2)c1 , would its reported Emax be below 5%?
label 0
